The reported numbers originate from patent US20030148956A1.

target: corticotropin releasing factor 1 receptor; assay: cell-based or functional assay
Ends that are not written are not given here.
Documented CRF1R Emax % across a set of binders
Give just the numeric value; % need not be written.

// solved cases for CRF1R Emax % follow
ZGPPISIDLPFQLLRKMIEIEKQEKEKQQAANNALLLDTI (C-terminal amide) [SEQ ID NO 251]; 80
ZGPPISIDLPIILLRKVIEIEKQEKEKQQAANNARLLARI (C-terminal amide) [SEQ ID NO 295]; 5.3
ZGPPISIDLPFQLLRKIIEIEKQEKEKQQAANNALLLATI (C-terminal amide) [SEQ ID NO 362]; 100

Tell me the measured CRF1R Emax % of ZGPPISIDLPFYLLRKMIEIEKQEKEKQQAANNALLLDTI (C-terminal amide) [SEQ ID NO 230] , please.
100

Tell me the measured CRF1R Emax % of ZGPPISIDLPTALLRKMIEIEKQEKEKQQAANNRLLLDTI (not fully specified; C-terminal amide) [SEQ ID NO 301] , please.
84.1

Tell me the measured CRF1R Emax % of DNPSLSIDLPLILLRTLLELARTQSQRERAEQNARIFARV-NH2 [SEQ ID NO 330] , please.
86.8
